Field pKi: reported value for 5-hydroxytryptamine receptor 5A (Homo sapiens, UniProt P47898); entries drawn from several documents.
pKi: −log10 of the molar value.

Input line: Item under review: "NC(N)=NC(=O)c1ccc2c(c1)C(c1ccccc1C(F)(F)F)=CCO2" . Reported pKi?
Output line: 7.52 to 8.52

Input line: Could you do the same for "COc1ccccc1C1=CCCc2ccc(C(=O)N=C(N)N)cc21" , please?
Output line: 8.52 to 9.52

Input line: What do you get for "Cc1ccc2ccc(C(=O)N=C(N)N)cc2c1-c1ccc(C#N)cc1" ?
Output line: 8.52 to 9.52

Input line: And the next one, "COc1ccccc1CNC(=N)Nc1nc(-c2cccc(F)c2)cs1" ?
Output line: 6.30 to 7.30

Input line: Please answer likewise for "NC(N)=NC(=O)c1ccc2cccc(-c3ccsc3)c2c1"
Output line: 8.52 to 9.52

====

pKi: −log10 of the molar value.
Collected from the literature: pKi of various molecules toward 5-hydroxytryptamine receptor 5A (Homo sapiens, UniProt P47898).

Input line: Which value of pKi has been reported for "COc1ccc(F)cc1-c1csc2ccc(C(=O)N=C(N)N)cc12" in the records?
Output line: 7.52 to 8.52

Input line: Would you mind doing "COc1ccccc1-c1c(Cl)ccc2ccc(C(=O)N=C(N)N)cc12" as well?
Output line: 8.52 to 9.52

Input line: Same thing, different molecule: "COc1cccc(OC)c1CNC(=N)Nc1nc(-c2ccc(Cl)cc2)cs1"
Output line: 6.30 to 7.30

Input line: And "COc1ccccc1Cn1cc(-c2ccc(OC(F)(F)F)cc2)nc1N" ?
Output line: > 6.22

Input line: Thanks! And "COc1cccc(OC)c1CNC(=N)Nc1nc(-c2ccc(F)c3ccccc23)cs1" ?
Output line: > 7.30

====

# literature pull: 5-hydroxytryptamine receptor 5A (Homo sapiens, UniProt P47898) Ki

Input line: // query Ki value for entry NC(N)=NC(=O)N1Cc2c(-c3ccc(F)cc3F)ccc(Cl)c2C(F)C1 (stereo not shown)
Output line: 6.6 nM

Input line: And the next one, "COc1ccccc1Cc1cn(-c2ccc(F)cc2)nc1N" ?
Output line: > 600 nM

Input line: Same lookup for "NC(N)=NC(=O)c1ccc2cccc(-c3cc(F)ccc3Cl)c2c1" , please.
Output line: 0.3 to 3 nM

Input line: Try the compound "COc1cccc(OC)c1CNC(=N)Nc1ccn(C)n1"
Output line: < 50 nM

Input line: Lookup "NC(N)=NC(=O)c1ccc2cccc(-c3cc(Cl)ncc3Cl)c2c1"
Output line: 3 to 30 nM

Input line: Field entry: "COc1cccc(OC)c1CNC(=N)Nc1nc(-c2cc(Cl)cs2)cs1"
Output line: < 50 nM

Input line: # iterate: "COc1cccc(OC)c1Cc1cc2cc3c(cc2nc1N)OCO3"
Output line: < 300 nM

Input line: Cool, now "COc1ccccc1Cc1cc2cnccc2nc1N"
Output line: < 300 nM

Input line: Repeat for the following compound: "COc1cccc(OC)c1CNC(=N)Nc1nc(-c2ncc(F)cc2F)cs1"
Output line: < 50 nM

Input line: Try this compound next: "COc1cccc(OC)c1CNC(=N)Nc1nc2cc(Cl)c(C)cc2s1"
Output line: 50 to 500 nM

====

Hi, quick share: literature pKi data for 5-hydroxytryptamine receptor 5A (Homo sapiens, UniProt P47898), several sources combined.
pKi: −log10 of the molar value.

Input line: Any idea what pKi was measured for "COc1cccc(F)c1CNC(=N)Nc1nc(-c2ccc(F)cc2)cs1" ?
Output line: 6.30 to 7.30

Input line: "COc1cccc(OC)c1CN1Cc2ccc(-c3ccc(OC(F)(F)F)cc3)cc2N=C1N" , same question.
Output line: > 6.52

Input line: Check "COc1ccccc1Cn1cc(-c2ccccc2)nc1NC(C)=O" too.
Output line: < 6.22

Input line: Also "NC(N)=NC(=O)c1ccc2ccc(F)c(-c3ccncc3Cl)c2c1" , if possible.
Output line: 8.52 to 9.52

Input line: Likewise for "NC(N)=NC(=O)c1ccc2c(c1)C(c1cc(F)cc(F)c1)=CCO2" ?
Output line: 7.52 to 8.52

Input line: Lookup "NC(N)=NC(=O)c1ccc2c3ccccc3n(C3CCOCC3)c2c1"
Output line: ≥ 7.30

Input line: Would you kindly repeat that for "NC(N)=NC(=O)c1ccc2c(c1)C(c1ccccc1)=CCCO2" ?
Output line: 7.52 to 8.52

Input line: Also check "COc1ccccc1CNC(=N)Nc1nc(-c2ccccc2F)cs1"
Output line: 6.30 to 7.30

Input line: And then "COc1cc(F)c(C2=C(C)CCc3ccc(C(=O)N=C(N)N)cc32)c(F)c1" , what is it?
Output line: 8.52 to 9.52

Input line: Another compound to check: "NC(N)=NC(=O)c1ccc2cccc(-c3cccc4c3OCCO4)c2c1"
Output line: 7.52 to 8.52

Input line: And "Cc1ccc(-c2cccc3ccc(C(=O)N=C(N)N)cc23)c(F)n1" ?
Output line: 7.52 to 8.52

Input line: "COc1ncccc1-c1cccc2ccc(C(=O)N=C(N)N)cc12" , same question.
Output line: 7.52 to 8.52

Input line: Cool, now "COc1ccccc1CNC(=N)Nc1nc(C)cs1"
Output line: > 7.30

Input line: Moving on to "COc1cccc(OC)c1CNC(=N)Nc1cc(C(C)(C)C)[nH]n1"
Output line: > 7.30

Input line: Do the same for "COc1ccccc1CNC(=N)Nc1nc(-c2cccnc2)cs1" please
Output line: 6.30 to 7.30

Input line: Continue with "CS(=O)(=O)c1ccc2ccc(C(=O)N=C(N)N)cc2c1-c1c(F)cc(F)cc1F"
Output line: 6.52 to 7.52

Input line: Can you check "NC(N)=NC(=O)c1ccc2cccc(-c3cccc4c3OC(F)(F)O4)c2c1" next?
Output line: 7.52 to 8.52

Input line: Repeat for the following compound: "COc1cccc(OC)c1CN1Cc2ccc(-c3ccccc3)cc2N=C1N"
Output line: > 6.52

Input line: Next compound up: "COc1cccc(Cl)c1-c1cccc2ccc(C(=O)N=C(N)N)cc12"
Output line: 8.52 to 9.52

====

Record: compiled Ki on 5-hydroxytryptamine receptor 5A (Homo sapiens) from multiple reports.

Input line: Using the record for "COc1cccc(OC)c1CNC(=N)Nc1nc(-c2ccc(C(F)(F)F)cc2)cs1" , report its Ki.
Output line: 50 to 500 nM

Input line: Here is the next compound: "N#Cc1cc(C2=CCCc3ccc(C(=O)N=C(N)N)cc32)ccc1F"
Output line: 30 to 300 nM

Input line: What would you report for "COc1cccc(OC)c1CNC(=N)Nc1nc2ccccc2s1" ?
Output line: < 50 nM

Input line: Repeat with "COc1ccccc1C1=CCCCc2ccc(C(=O)N=C(N)N)cc21"
Output line: 30 to 300 nM

Input line: Follow-up item: "N#Cc1ccc2ccc(C(=O)N=C(N)N)cc2c1-c1ccccc1Cl"
Output line: 1 to 30 nM

====

Kindly find below Ki information for 5-hydroxytryptamine receptor 5A (Homo sapiens, UniProt P47898) taken from the literature.

Input line: Request the reported Ki associated with "CNC(=Nc1nccs1)NCc1ccccc1OC"
Output line: > 500 nM

Input line: Follow-up entry: "NC(=O)c1cccc(C2=CCCc3ccc(C(=O)N=C(N)N)cc32)c1"
Output line: 30 to 300 nM

Input line: Next up: "COc1ccccc1Cc1cc2cccnc2nc1N"
Output line: < 10000 nM

Input line: Lookup "NC(N)=NC(=O)c1ccc2c(c1)C(c1cncs1)=CCC2"
Output line: 3 to 30 nM

Input line: Input "NC(N)=NC(=O)c1ccc2c(c1)C(c1c(F)cc(F)cc1F)=CCC2"
Output line: 0.3 to 3 nM

Input line: Ok, now "NC(N)=NC(=O)c1ccc2cccc(C3=CCOCC3)c2c1"
Output line: 3 to 30 nM

Input line: Quick one: "Cc1sc2ccc(C(=O)N=C(N)N)cc2c1-c1ccccc1F"
Output line: 0.3 to 3 nM

Input line: What about this compound? "NC(N)=NC(=O)c1ccc2cccc(-c3ccccc3O)c2c1"
Output line: 0.3 to 3 nM

Input line: Further, for "CC(=O)n1c2ccccc2c2ccc(C(=O)N=C(N)N)cc21" ?
Output line: ≤ 50 nM

Input line: Similarly, "NC(N)=NC(=O)c1ccc2c(c1)C(c1ccsc1)=CCC2" ?
Output line: 0.3 to 3 nM

====

Study the reported pKi values for UniProtKB P47898 given below; they originate from different publications.
pKi: −log10 of the molar value.

Input line: Need pKi, item "COc1ccccc1Cc1cc2cccc(OC)c2nc1N"
Output line: > 6.52

Input line: What about this compound? "COc1ccccc1CNC(=N)Nc1nc(C)c(C)o1"
Output line: 6.30 to 7.30

Input line: Query "Cc1cccc2c1c1c(F)cc(C(=O)N=C(N)N)cc1n2C1CCOCC1" next
Output line: ≥ 7.30

Input line: Input "NC(N)=NC(=O)N1Cc2c(-c3cc(F)c(F)cc3F)ccc(F)c2C2(CC2)C1"
Output line: 8.89

Input line: Try "COc1ccccc1CNC(=N)Nc1nc2ccccc2s1" next.
Output line: 6.30 to 7.30

Input line: "NC(N)=NC(=O)c1ccc2scc(-c3ccccc3F)c2c1" , same question.
Output line: 8.52 to 9.52

Input line: Proceed to "COc1ccc(F)cc1C1=CCOc2ccc(C(=O)N=C(N)N)cc21"
Output line: 7.52 to 8.52

Input line: Next compound up: "NC(N)=NC(=O)c1ccc2cccc(-c3ccc(Cl)nc3)c2c1"
Output line: 7.52 to 8.52

Input line: Now consider "NC(N)=NC(=O)c1ccc2cccc(-c3ccc(F)cc3)c2c1" and answer again.
Output line: 8.52 to 9.52
